assay: Nuclear factor erythroid 2-related factor 2/antioxidant responsive element (Nrf2/ARE) small molecule agonists: luciferase reporter gene qHTS assay in human keratinocytes (AID 1919969); conditions: KeratinoSens HaCaT ARE-luciferase, luminescence, 24 h; series mostly up to 92.4 µM; further: nearly all actives have a fitted effect of over 35% in size
Records with an inconclusive call do not appear. Active and inactive are the calls of the source. The call rests on the fitted dose curve.
Outcome codes: yes (1) (active), no (0) (inactive)

CSCCCN=C=S : yes (1)
Cc1nc2ccccc2c(=O)n1-c1ccccc1Cl : no (0)
O=C(NC(=O)c1c(F)cccc1F)Nc1ccc(OC(F)(F)C(F)OC(F)(F)F)c(Cl)c1 (stereo not drawn) : no (0)

----------
target: 5-hydroxytryptamine receptor 2A (Homo sapiens) (UniProt P28223); experiment: 5-hydroxytryptamine receptor 2A (HTR2A) small molecule antagonists, cell-based qHTS assay (AID 1963586); conditions: HTR2A-CHO cells, DOI-induced calcium flux, fluorescence; series mostly up to 61.5 µM; further: nearly all actives have a fitted effect of over 45% in size
Sequence (P28223 whole entry, looked up): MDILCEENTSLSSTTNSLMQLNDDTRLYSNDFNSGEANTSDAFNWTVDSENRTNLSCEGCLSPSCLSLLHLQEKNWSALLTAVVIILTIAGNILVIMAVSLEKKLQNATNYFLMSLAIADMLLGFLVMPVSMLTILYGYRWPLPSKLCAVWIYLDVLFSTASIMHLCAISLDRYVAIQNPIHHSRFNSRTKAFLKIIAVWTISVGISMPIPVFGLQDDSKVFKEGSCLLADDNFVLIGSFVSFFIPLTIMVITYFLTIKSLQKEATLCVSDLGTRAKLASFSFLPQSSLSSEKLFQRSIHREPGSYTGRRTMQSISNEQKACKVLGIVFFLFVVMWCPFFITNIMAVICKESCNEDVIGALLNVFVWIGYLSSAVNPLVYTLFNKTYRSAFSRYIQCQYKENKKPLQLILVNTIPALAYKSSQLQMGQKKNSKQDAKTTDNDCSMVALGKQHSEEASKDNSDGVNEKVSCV
Inconclusive results are not listed. Calls of active or inactive are those of the source. The call rests on the fitted dose curve.
Outcome codes: active, inactive

CCOC(=O)C(SP(=S)(OC)OC)c1ccccc1 (configuration not stated) : inactive
O=C(O)C(F)(F)C(F)(F)C(F)(F)C(F)(F)C(F)(F)C(F)(F)C(F)(F)C(F)(F)C(F)(F)F : inactive
Cn1cc(C2=C(c3cn(C4CCN(Cc5ccccn5)CC4)c4ccccc34)C(=O)NC2=O)c2ccccc21 : inactive
O=c1[nH]oc2c1CCNC2 : inactive
Cc1ccc(OP(=O)(Oc2ccccc2)Oc2ccccc2)cc1 : inactive
Cc1cc2c3c(c1)C(c1ccccc1)=N[C@@H](NC(=O)c1ccncc1)C(=O)N3CC2 : inactive
[Hg+2].[I-].[I-] : inactive
COP(N)(=S)Oc1ccccc1C(=O)OC(C)C (configuration not stated) : inactive
CCc1nn(C)c(C(=O)NCc2ccc(C(C)(C)C)cc2)c1Cl : inactive
C=CC(=O)NCNC(=O)C=C : inactive
C[C@]12CC[C@H]3[C@@H](CCC4=CC(=O)CC[C@@H]43)[C@@H]1CC[C@@H]2OC(=O)CCc1ccco1 : inactive
ClCCCCCCCl : inactive
NNCCO : inactive
O=[N+]([O-])c1ccc(Cl)c(Cl)c1Cl : inactive
O=Cc1ccc2c(c1)OCO2 : inactive
CC(C)(C)c1ccc(O)cc1 : inactive
FC(F)C(F)(F)OCC(Cn1cncn1)c1ccc(Cl)cc1Cl (configuration not stated) : inactive
N#CCCl : inactive
CC(Oc1ccc(Oc2ncc(C(F)(F)F)cc2Cl)cc1)C(=O)O (configuration not stated) : inactive
CC(Oc1cc(Cl)c(Cl)cc1Cl)C(=O)O (configuration not stated) : inactive
CC(C)(C)c1ccc(OP(=O)(Oc2ccccc2)Oc2ccccc2)cc1 : active
COP(=S)(OC)Oc1c(Cl)cc(C)cc1Cl : inactive
Cc1cnc2c(C(=O)O)c(Cl)ccc2c1 : inactive
CCC[N+](CCC)(CCC)CCC : inactive
C=CCOC(=O)c1ccccc1N : inactive
N#Cc1c2ccccc2cc2ccccc12 : inactive
O=C(O)C(Br)(Br)Br : inactive
COC(=O)C(C)N(C(=O)c1ccco1)c1c(C)cccc1C (configuration not stated) : inactive
CCC1(CC)C(=O)N=C(O)NC1=O : inactive
Oc1c(Cl)cc(Cl)cc1Cl : inactive
Fc1ccc(C2(Cn3cncn3)OC2c2ccccc2Cl)cc1 (configuration not stated) : inactive
CCNc1nc(NC(C)C(C)C)nc(SC)n1 (configuration not stated) : inactive
